target: recombinant hexose oxidase from Pichia pastoris (Chondrus crispus); construct: the entire hexose oxidase gene was amplified and isolated from at least three independent PCR amplifications; made in house; host or cells: Pichia pastoris KM71 with plasmid pUPO153 (pPIC3 vector), intracellular; test: Substrate specificity of recombinant hexose oxidase (o-dianisidine/peroxidase assay); format: biochemical; conditions: sugar at a final concentration of 0.1 M; recombinant hexose oxidase expressed in Pichia pastoris
Sequence (P93762 4-337 limits assumed): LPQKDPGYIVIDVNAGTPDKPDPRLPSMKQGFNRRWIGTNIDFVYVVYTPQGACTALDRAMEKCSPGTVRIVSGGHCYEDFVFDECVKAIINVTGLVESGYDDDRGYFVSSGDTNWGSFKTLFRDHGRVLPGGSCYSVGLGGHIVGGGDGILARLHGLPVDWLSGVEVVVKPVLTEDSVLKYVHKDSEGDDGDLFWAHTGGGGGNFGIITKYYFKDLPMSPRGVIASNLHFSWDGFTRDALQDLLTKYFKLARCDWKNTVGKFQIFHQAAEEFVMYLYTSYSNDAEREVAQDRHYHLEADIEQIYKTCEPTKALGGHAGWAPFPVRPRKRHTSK
Sequence (P93762 338-546 limits assumed): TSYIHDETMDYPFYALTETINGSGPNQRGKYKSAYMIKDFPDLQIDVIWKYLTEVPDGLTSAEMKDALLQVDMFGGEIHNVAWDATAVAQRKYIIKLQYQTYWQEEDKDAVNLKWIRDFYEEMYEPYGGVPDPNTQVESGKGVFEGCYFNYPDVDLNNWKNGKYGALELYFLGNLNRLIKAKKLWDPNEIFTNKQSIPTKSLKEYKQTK
attribute measured: Relative rate, recombinant enzyme
When you answer, write just the number.

Reference set, count: 4
>  <compound>
OC[C@H]1O[C@@H](O[C@H]2[C@H](O)[C@@H](O)C(O)O[C@@H]2CO)[C@H](O)[C@@H](O)[C@H]1O (some centres unmarked)

>  <Relative rate, recombinant enzyme>
38

$$$$
>  <compound>
O=C[C@H](O)[C@@H](O)[C@H](O)[C@H](O)CO

>  <Relative rate, recombinant enzyme>
100

$$$$
>  <compound>
O=C[C@H](O)[C@@H](O)[C@@H](O)[C@H](O)CO

>  <Relative rate, recombinant enzyme>
75

$$$$
>  <compound>
O=C[C@H](O)[C@@H](O)[C@H](O[C@@H]1O[C@H](CO)[C@@H](O)[C@H](O)[C@H]1O)[C@H](O)CO

>  <Relative rate, recombinant enzyme>
51

$$$$

Turning to the following compound.
**Q:** Enter reported Relative rate, recombinant enzyme observed with recombinant hexose oxidase from Pichia pastoris (Chondrus crispus) for "OC[C@H]1O[C@H](O[C@H]2[C@H](O)[C@@H](O)[C@H](O)O[C@@H]2CO)[C@H](O)[C@@H](O)[C@@H]1O"
**A:** 57

These data points were gathered from patent US6924366B2.
